Taken from patent US20240092922A1.

test.system: T1, Histidine-tagged human 4-1BB protein (h4-1BB-His) (human, UniProt Q07011 24-186)
T1 construct: not shown: histidine tag
method.summary: SPR (Biacore T200), antibody on Protein A chip, h4-1BB-His injected;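 further: dissociation phase followed for 300 s, Kd derived as koff divided by kon from the kinetic fit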
Catalogue of koff values

Observe how each entry below is paired with its result.
# binder, koff
measured = [
    ("1C4-H3K3-IgG4 (antibody, V domains shown, humanized) VH: QVQMVQSGAEVKKPGASVKLSCKASGFTFSSSYINWLRQAPGQSLEWIGWIFAGTGGTYYNQKFTGRAQITRDTSASTAYMELSSLRSEDTAIYYCARHSPRATLFDFWGQGTTLTVSS VL: EIVLTQSPATLSLSPGERATMSCRASSSVNHMHWYQQKPGFSPRAWIYATSNLASGIPARFSGSGSGTSFTLTISSLEPEDFATYYCQQWSSNPYTFGGGTKLEIK", "0.000533 s⁻¹"),
    ("1C4-H2K3-IgG4 (antibody, V domains shown, humanized) VH: QVQMVQSGAEVKKPGASVKLSCKASGFTFSSSYINWLRQAPGQSLEWIGWIFAGTGGTYYNQKFTGRVQITRDTSASTAYMELSSLRSEDTAIYYCARHSPRATLFDFWGQGTTLTVSS VL: EIVLTQSPATLSLSPGERATMSCRASSSVNHMHWYQQKPGFSPRAWIYATSNLASGIPARFSGSGSGTSFTLTISSLEPEDFATYYCQQWSSNPYTFGGGTKLEIK", "0.000502 s⁻¹"),
]

Sample 1C4-H4K2-IgG4 (antibody, V domains shown, humanized) VH: QGQMVQSGAEVKKPGASVKLSCKTSGFTFSSSYINWLRQAPGQSLEWIAWIFAGTGGTYYNQKFTGRAQLTVDTSASTAYMELSSLRSEDTAIYYCARHSPRATLFDFWGQGTTLTVSS VL: EIVLTQSPATLSLSPGERATLSCRASSSVNHMHWYQQKPGQAPRALIYATSNLASGIPARFSGSGSGTSFTLTISSLEPEDFATYYCQQWSSNPYTFGGGTKLEIK — what was its koff?
0.00049 s⁻¹

Which koff is listed for 6A5-H2K1-IgG2 (antibody, V domains shown, humanized) VH: QVQLVQSGAEVKKPGSSVKLSCKASGYTFSSYWINWVRQAPGQGLEWIGNIYPSDSYTNYNQKFKDRATLTVDKSTSTAYMELSSLRSEDTAVYYCTRTWEFYYDSVFDYWGQGTLVTVSS VL: DIQMTQSPSSLSASLGERVTITCKASQDINSYLSWYQQKPGKAPKLLIYRANRLVDGVPSRFSGSGSGQDFTLTISSLQPEDIATYYCLQYDELPPTFGGGTKVEIK ?
0.00155 s⁻¹

Entry under review: 5F9-H3K2-IgG4 (antibody, V domains shown, humanized) VH: QVQLKESGPGLVKPSETLSITCTVSGFSLTTYDISWVRQPPGKGLEWLGVIWTGGGTNYNSSFMSRVTISKDNSKNQVSLKLSSVTAADTAIYYCERVDYWGQGTTLTVSS VL: DVVMTQSPLSLPVTLGQPASISCRSSQSLVHSNGNTYLHWFQQRPGQSPKLLIYKVSNRFSGVPDRFSGSGSGTAFTFKISRVEAEDVGVYYCSQNTHVPWTFGGGTKVEIK . Reported koff?
0.00258 s⁻¹

Sample 6A5-H2K4-IgG2 (antibody, V domains shown, humanized) VH: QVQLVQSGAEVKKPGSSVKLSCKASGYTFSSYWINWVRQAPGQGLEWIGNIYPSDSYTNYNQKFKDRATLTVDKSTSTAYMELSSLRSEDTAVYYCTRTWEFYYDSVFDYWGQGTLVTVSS VL: DIQMTQSPSSLSASLGERVTITCKASQDINSYLSWFQQKPGKAPKTLIYRANRLVDGVPSRFSGSGSGQDYTLTISSLQPEDIATYYCLQYDELPPTFGGGTKLEIK — what was its koff?
0.000581 s⁻¹
